Molecular target: pooled human IgG
Enzyme Activity Endpoint Assay (purified): IgG values, listed per item
measured attribute: Enzyme Activity Endpoint Assay (purified): IgG (ng/µL)

PRT-655 (protein) MQITSVWTKGVTPLTPEQFRYNNEDVIHAPYLAHQGWYDITKAFDGKDNLLCGAATAGNMLHWWFDQNKTEIEAYLSKHPEKQKIIFNNQELFDLKAAIDTKDSQTNSQLFNYFRDKAFPNLSARQLGVMPDLVLDMFINGYYLNVFKTQSTDVNRPYQDKDKRGGIFDAVFTRGDQTTLLTARHDLKNKGLNDISTIIKQELTEGRALALSHKTGNGGSSHVINLWGADFNAEGNLEAIYVTDSDANASIGMKKYFVGINAHGHVAISAKKIEGEDVGAQVLGLFTLSSGKDIWQKLSLEHHHHHH : 1380
PRT-666 (protein) MQITSVWTKGVTPPTPEQFRNNNEDVFHAPYLANQGWYDITKTFNGKDDLLCGAATAGNMLHWWFDQNKTEIEAYLKKHPEKQKIIFNNQELFDLKKAIDTKDSQTNSQLFNYFRDKAFPNLSARQLGVMPDLVLDMFINGYYLNVTKTQSTDVNRPYQDKDKRGGIFDAVFTRGDQTTLLTSRHDLKNKGLNEISDLIKQELTEGKALALSHTYANVSINHVINLWGADFNAEGNLEAIYVTDSDSNASIGMKKYFVGVNASGKVAISAKKIEGENIGAQVLGLFTLSSGKDIWQKLSLEHHHHHH : 66
PRT-281 (protein) MVTSVWTKGVTPPAKFTQGEDVFHAPYVANQGWYDITKTFNGKDDLLCGAATAGNMLHWWFDQNKEKIEAYLKKHPDKQKIMFGDQELLDVRKVINTKGDQTNSELFNYFRDKAFPNLSARRIGVMPDLVLDMFINGYYLNVYKTQTTDVNRTYQEKDRRGGIFDAVFTRGDQSKLLTSRHDFKEKNLKEISDLIKKELTEGKALGLSHTYANVRIGHVINLWGADFDSNGNLKAIYVTDSDSNASIGMKKYFVGVNSSGKVAISAKEIKEDNIGAQVLGLFTLSTGQDSWNQTN : 347
PRT-290 (protein) MVTSVWTKGVTPPADFTQGEDVFHAPYVANQGWYDITKTFNGKDDLLCGAATAGNMLHWWFDQNKEYIEAYLKKHPEKQKIMFGDQELLDVRKAINTKGSQKNSELFNYFRDKAFPNLSARRLGVMPDLVLDMFINGYYLNVTKTQTTDVNRTYQEKDKRGGIFDAVFTRGDQSKLLTSRHDFKEKGLKEISDLIKQELTEGKALGLSHTYANVRIGHVINLWGADFDSDGNLKAIYVTDSDSNASIGMKKYFVGVNSSGKVAISAKEIKEDNIGAQVLGLFTLSTGQDIWNQTN : 179
PRT-80 (protein) MANQEIRYSEVTPKHITSVWTKGVTPPTQFIQGEDVFHAPYKANQGWYDITKTFNGKDDLLCGAATAGNMLHWWFDQNKEEIEAYLKKHPEKQKIMFGDQELLDVRKAINTKDDQTNSELFNYFRDKAFPNLSARRLGVMPDHVLDMFINGYYLNVNKTQTTDVNRTYQEKDPRGGIFDAVFTRGDQSKLLTSRHDFKEKTLKEISDLIKQELTEGKALGLSHTYANVRINHVINLWGADFDSNGNLKAIYVTDSDSDASIGMKKYFVGVNSAGKVAISAKEIKGDNIGAQVLGLFTLSTGQDIWNQTN : 29
PRT-133 (protein) MRNATEAYAKEVPHQITSVWTKGVTPLTPEQFRYNNEDVIHAPYLAHQGWYDITKTFDGKDNLLCGAATAGNMLHWWFDQNKTEIEAYLSKHPEKQKIIFNNQELFDLKAAIDTKDSQTNSQLFNYFRDKAFPNLSARQLGVMPDLVLDMFINGYYLNVFKTQSTDVNRPYQDKDKRGGIFDAVFTRGDQTTLLTARHDLKNKGLNDISTIIKQELTEGRALALSHTYANVSISHVINLWGADFNAEGNLEAIYVTDSDANASIGMKKYFVGINAHGHVAISAKKIEGENIGAQVLGLFTLSSGKDIWQKLS : 0
PRT-306 (protein) MVTSVWTKGVTPPTDFIKGEDVFHAPYDAGQGWYDITKEFNGKDDLLCGAATAGNMLHWWFDQNKEYIEAYLKKHPEKQKIMFGDQELLDVRKAINTKGSQKNSELFNYFRDKAFPNLSARRLGVMPDLVLDMFINGYYLNVTKTQTTDVNRTYQEKDKRGGIFDAVFTRGDQSKLLTSRHDFKEKGLKEISDLIKQELTEGKALGLSHTYANVRIGHVINLWGADFDSDGNLKAIYVTDSDSNASIGMKKYGVGVNSAGKVAISAKEIKEDNIGAQVLGLFTLSTGQDIWNQTN : 341
PRT-119 (protein) MRNATEAYAKETPKQITSVWTKGVTPPTPEQFRYNNEDVFHAPYVANQGWYDITKTFDGKDNLLCGAATAGNMLHWWFDQNKTEIEKYLSKHPEKQKIIFNNQELFDLKAAIDTKDSQTNSQLFNYFRDKAFPNLSARQLGVMPDLVLDMFINGYYLNVTKTQSTDVNRPYQDKDKRGGIFDAVFTRGDQTKLLTARHDLGNKSLNEISQLIKQELQEGKALALSHTYANVRISHVINLWGADFDAEGNLEAIYVTDSDSNASIGMKKYYVGVNSAGKVAISAKKIEGENIGAQVLGLFTLSSGKDIWQKLS : 0

Where do the numbers come from? From patent US20250027068.
